Source: ChEMBL document CHEMBL1961873

Property: inhibition; scope: individual compounds
Target: RAF proto-oncogene serine/threonine-protein kinase (Homo sapiens) (UniProt P04049);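 also: values are the mean percent inhibition of CRAF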
Sequence (P04049 whole entry): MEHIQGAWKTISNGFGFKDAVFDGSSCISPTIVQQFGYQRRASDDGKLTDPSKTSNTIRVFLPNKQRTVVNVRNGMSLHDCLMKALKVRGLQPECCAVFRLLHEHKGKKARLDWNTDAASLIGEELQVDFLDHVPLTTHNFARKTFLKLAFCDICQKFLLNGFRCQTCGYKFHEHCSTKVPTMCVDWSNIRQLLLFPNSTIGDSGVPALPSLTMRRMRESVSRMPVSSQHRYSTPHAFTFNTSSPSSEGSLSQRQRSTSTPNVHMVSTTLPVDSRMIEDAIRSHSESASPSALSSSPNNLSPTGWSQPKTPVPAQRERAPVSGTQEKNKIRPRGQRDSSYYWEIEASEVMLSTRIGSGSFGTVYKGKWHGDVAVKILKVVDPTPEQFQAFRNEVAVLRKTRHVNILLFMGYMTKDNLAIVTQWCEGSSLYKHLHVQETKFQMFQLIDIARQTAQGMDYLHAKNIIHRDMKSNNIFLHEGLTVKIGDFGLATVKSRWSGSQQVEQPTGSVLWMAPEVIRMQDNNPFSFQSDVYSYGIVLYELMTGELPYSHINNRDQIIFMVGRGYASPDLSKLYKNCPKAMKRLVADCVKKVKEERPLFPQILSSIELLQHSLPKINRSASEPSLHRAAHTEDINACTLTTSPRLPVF
Conditions: at 1 µM
Dear colleague, please return just the value in %, with no unit written.

Query: Requested read-out: inhibition. Entry: CC1(C)CC(n2cnc(-c3ccc(F)cc3)c2-c2ccnc(N)n2)CC(C)(C)N1
Response: 2.12

Query: Record request: inhibition value, item COC(=O)Nc1nc2cc(Oc3ccc(NC(=O)Nc4ccccc4)cc3)ccc2[nH]1
Response: 17.3

Query: # query: inhibition of entry Cc1c2ccc(N(C)c3ccnc(Nc4cccc(S(N)(=O)=O)c4)n3)cc2nn1C
Response: 41

Query: // lookup inhibition for Cn1c(-c2nonc2N)nc2cnccc21
Response: 8.87

More entries:
Query: Which inhibition reading was recorded for the compound COc1c(C(N)=O)cc(-c2ccc(Cl)cc2)cc1-c1ccc(S(N)(=O)=O)cc1 ?
Response: 1.44

Query: Which inhibition value is on record for CN(c1ccc(NC(=O)NCCN2CCOCC2)cc1)c1ccnc(Nc2ccc(CS(C)(=O)=O)cc2)n1 ?
Response: 7.58

Query: Given the compound COc1ccccc1-c1cc(/C=C2\C(=O)Nc3ncc(Br)cc32)cc(Br)c1O , what is its reported inhibition?
Response: -9.49

Query: If you can, please state the reported inhibition value of O=C(O[C@H]1CN[C@H](C#Cc2cc3ncnc(Nc4ccc5c(cnn5Cc5ccccc5)c4)c3s2)C1)N1CCOCC1 .
Response: -1.71

Query: Reported inhibition, compound CNC(=O)c1sc(-n2cnc3cc(OC)c(OC)cc32)cc1OCc1ccccc1C(F)(F)F : ____
Response: 0.72

Query: Any idea what its inhibition is? The compound is CC1=C(C(=O)Nc2ccc3[nH]ncc3c2)C(c2ccc(F)cc2)N=C(c2ccc(C(F)(F)F)nc2)N1 (stereo not drawn)
Response: -4.26

Query: # input compound: COc1cc2c(cc1Nc1nc(Nc3cccc(F)c3C(N)=O)c3cc[nH]c3n1)N(C(=O)CN1CCN(C(C)C)CC1)CC2 ; wanted: its inhibition
Response: -4.19

Query: Name the reported inhibition value associated with the compound c1ccc(-c2n[nH]cc2-c2ccnc(-c3ccc(OCCn4ccnc4)cc3)c2)nc1
Response: -2.1

Query: Value lookup for inhibition; key = CS(=O)(=O)CCNCc1ccc(-c2ccc3ncnc(Nc4ccc(OCc5ccccc5)cc4)c3c2)o1
Response: 2.22

Query: Name the recorded inhibition for CS(=O)(=O)CCNCc1ccoc1-c1ccc2ncnc(Nc3ccc(OCc4ccccc4)cc3)c2c1 .
Response: -1.65

Query: Quick one: inhibition for COC(=O)Nc1nc2ccc(Oc3ccc(NC(=O)Nc4cc(C(F)(F)F)ccc4F)cc3)cc2s1 ?
Response: 60.1

Query: # inhibition lookup, item CC1=C(C(=O)Nc2ccc3[nH]nc(C)c3c2)C(c2ccc(C(F)(F)F)cc2)CC(=O)N1 (stereo not drawn)
Response: -1.39

Query: Which measured inhibition value corresponds to CN1CCC(n2cnc(-c3ccc(F)cc3)c2-c2ccnc(NCCO)n2)CC1 ?
Response: 1.26

Query: Fill blank: measured inhibition of the compound O=C(Nc1n[nH]c2nnc(-c3cccnc3)cc12)C1CC1 is ____.
Response: -3.13

Query: # get_value(readout='inhibition', item= FC(F)(F)CNc1nccc(-c2cnn3ncccc23)n1 )
Response: -1
